The reported numbers originate from the RNAGym collection of RNA variant scans (doi:10.7554/elife.80360).

B1: CPEB3 Ribozyme (parent)
chain: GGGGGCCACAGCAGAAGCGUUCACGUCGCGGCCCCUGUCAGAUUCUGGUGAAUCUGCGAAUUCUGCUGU

Variants of: B1
protocolDescription: self-cleavage, relative activity (ratio to wild type); higher = more cleavage; co-transcriptional
Where self-cleavage equals or exceeds 0.6, the correct label is true; where it does not, the label is false.

# mutantId, assignedCategory
rows = [
    ("A8C G58A", "true"),
    ("C32U C54U", "true"),
    ("C35U U64A", "true"),
    ("C18G G25U", "false"),
    ("C35G U43A", "false"),
    ("G17U G37A", "false"),
    ("G4A G11U", "true"),
    ("C24A U38G", "false"),
    ("G17C G48U", "false"),
]
